- System: herpes simplex virus 1 (HSV-1; strain HFEM)
- assay-comment: Plaque reduction test for herpes simplex virus 1
- Type: cell-based
- cond: Human alphaherpesvirus 1, Vero, HFEM strain in Vero cells; each figure is the value obtained in a single test; read-out: IC₅₀ Herpes Simplex Type 1 virus HFEM strain in Vero cells
Provide the reported IC50 of each item.
Answers are plain numbers, in µg/mL.

Working through the 3 compounds below one at a time, give IC50 for each.
1. Nc1nc2c(ncn2OCC(O)CO)c(=O)[nH]1 (stereo not drawn) [Example 6, 9-(2,3-Dihydroxyprop-1-oxy)guanine]
2. Nc1nc2c(ncn2OCCCO)c(=O)[nH]1 [Example 1, 9-(3-Hydroxyprop-1-oxy)guanine]
3. CCCCCC(=O)OCCCOn1cnc2c(=O)[nH]c(N)nc21 [Example 11, 9-(3-Hexanoyloxyprop-1-oxy)guanine]

-- reply
8.6
0.4
0.7
